Reference source for all entries: patent US20240239806A1

- Tested on: RPEMYC^H2B-GFP cells
- procedure_text: Phenotypic screening assay (mitotic arrest, polyploidy)
- Format: cell-based
- run_parameters: 1 nM to 30 μM, read-out: Proliferative arrest (>50%)
- Procedure: We have previously developed a mechanism-informed phenotypic screening assay to identify novel antimitotic agents. […] At 24, 48 or 72 hours after initiation of treatment, cells were analyzed for either an arrest in mitosis or a change in DNA content by GE IN-Cell Analyzer 2000. […]
pIC50: −log10 of the molar value.
Parameter pIC50: see the listing below.
parameter: pIC50

molecule_smiles: COc1cc(NC(C)=O)cc(Oc2ncnc3ccn(C)c23)c1
tgt: RPEMYC^H2B-GFP cells
measurement: 4.52 to 5.00

molecule_smiles: COc1cc(Oc2ccnc3cc(OC)c(OC)cc23)cc(-c2ncccn2)c1
tgt: RPEMYC^H2B-GFP cells
measurement: 6.00 to 9.00

molecule_smiles: COc1cc(NC(C)=O)cc(Oc2ccnc3ccc(C(=O)N(C)C)cc23)c1
tgt: RPEMYC^H2B-GFP cells
measurement: 5.00 to 6.00

molecule_smiles: COc1cc(NC(C)=O)cc(Oc2ccnc3cc(OC)c(C(N)=O)cc23)c1
tgt: RPEMYC^H2B-GFP cells
measurement: 6.00 to 9.00

molecule_smiles: COc1cc(Oc2ccnc3ccccc23)cc(C(=O)O)c1
tgt: RPEMYC^H2B-GFP cells
measurement: < 4.52

molecule_smiles: COc1cc(NC(C)=O)cc(Oc2ccnc3ccccc23)c1
tgt: RPEMYC^H2B-GFP cells
measurement: 6.00 to 9.00

molecule_smiles: COc1cc(Oc2ncnc3ccccc23)cc(-n2cnc(C)c2)c1
tgt: RPEMYC^H2B-GFP cells
measurement: 5.00 to 6.00

molecule_smiles: COc1cc(Oc2ncnc3ccsc23)cc(-n2cccn2)c1
tgt: RPEMYC^H2B-GFP cells
measurement: 6.00 to 9.00

molecule_smiles: CNC(=O)c1cc(OC)cc(Oc2ccnc3ccccc23)c1
tgt: RPEMYC^H2B-GFP cells
measurement: 5.00 to 6.00

====

- System: RPEMYC^H2B-GFP cells
- procedure_text: Phenotypic screening assay (mitotic arrest, polyploidy)
- Assay type: cell-based
- run_parameters: 1 nM to 30 μM, read-out: Mitotic Arrest (≥5%)
// minimal effective concentration lookup, one value per entry

compound: COC(=O)c1ccc2nccc(Oc3cc(NC(C)=O)cc(OC)c3)c2c1 [Compound 42]
minimal effective concentration: 0.001 to 1 µM
--
compound: COC(=O)c1cc(OC)cc(Oc2ncnc3ccsc23)c1 [Compound 37]
minimal effective concentration: 0.001 to 1 µM
--
compound: COc1cc(Oc2ncnc3ccccc23)cc(-n2cnc(C)c2)c1 [Compound 76]
minimal effective concentration: 1 to 10 µM
--
compound: COc1cc2nccc(Oc3cc(-n4cccn4)cc(-n4cccn4)c3)c2cc1C(N)=O [Compound 4]
minimal effective concentration: 0.001 to 1 µM
--
compound: COc1cc(Oc2ccnc3cc(OC)c(C(N)=O)cc23)cc(OC2CCOC2)c1 (centres unmarked) [Compound 6]
minimal effective concentration: 0.001 to 1 µM

====

- Tested on: RPEMYC^H2B-GFP cells
- procedure_text: Phenotypic screening assay (mitotic arrest, polyploidy)
- Assay type: cell-based
- run_parameters: 1 nM to 30 μM, read-out: Mitotic Arrest (≥5%)
parameter: minimal effective concentration

molecule_smiles: COc1cc(Oc2ccnc3cc(OC)c(C(N)=O)cc23)cc(-n2nc(C)cc2C)c1
measurement: 1 to 10 µM
//
molecule_smiles: COc1cc(NC(C)=O)cc(Oc2ccnc3ccc(OC)cc23)c1
measurement: 0.001 to 1 µM
//
molecule_smiles: CCOc1cc(Oc2ccnc3ccc(C(N)=O)cc23)cc(-n2cccn2)c1
measurement: 0.001 to 1 µM
//
molecule_smiles: Cc1cc(Oc2ccnc3ccc(C(N)=O)cc23)cc(-n2cccn2)c1
measurement: 0.001 to 1 µM
//
molecule_smiles: COc1cc(Oc2ccnc3ccccc23)cc(C(=O)O)c1
measurement: > 30 µM
//
molecule_smiles: COc1cc(Oc2ccnc3ccccc23)cc(C(F)(F)F)c1
measurement: 1 to 10 µM
//
molecule_smiles: CNC(=O)c1ccc2nccc(Oc3cc(NC(C)=O)cc(OC)c3)c2c1
measurement: 0.001 to 1 µM
//
molecule_smiles: CNC(=O)c1cc2c(Oc3cc(OC)cc(-n4cccn4)c3)ccnc2cc1OC
measurement: 1 to 10 µM
//
molecule_smiles: CNC(=O)c1cc(OC)cc(Oc2ccnc3cc(OC)c(Br)cc23)c1
measurement: 1 to 10 µM

====

The entries below come with measured IC50 values attached.
- System: RPEMYC^H2B-GFP cells
- procedure_text: Phenotypic screening assay (mitotic arrest, polyploidy)
- Type: cell-based
- run_parameters: 1 nM to 30 μM, read-out: Proliferative arrest (>50%)

molecule_smiles: COc1cc(Oc2ccnc3ccc(Cl)cc23)cc(-n2cccn2)c1
IC50: 1 to 1000 nM
//
molecule_smiles: COC(=O)c1cc(OC)cc(Oc2ncnc3cc[nH]c23)c1
IC50: 1 to 1000 nM
//
molecule_smiles: CCOc1cc(Oc2ccnc3ccc(C(N)=O)cc23)cc(-n2cccn2)c1
IC50: 1 to 1000 nM
//
molecule_smiles: COc1cc(Oc2ncnc3ccccc23)cc(-n2cccn2)c1
IC50: 10000 to 30000 nM
//
molecule_smiles: COC(=O)c1cc(Oc2ccnc3ccccc23)cc(C(=O)OC)c1
IC50: 1 to 1000 nM
//
molecule_smiles: COc1cc(Oc2ncnc3ccccc23)cc(-n2ccnc2)c1
IC50: 1000 to 10000 nM
//
molecule_smiles: COc1cc(Oc2ccnc3cc(OC)c(C(N)=O)cc23)cc(-c2ncccn2)c1
IC50: 1 to 1000 nM
//
molecule_smiles: COc1cc(NC(C)=O)cc(Oc2ccnc3ccc(C(=O)O)cc23)c1
IC50: 10000 to 30000 nM
//
molecule_smiles: COc1cc(Oc2ncnc3cc(OC)c(OC)cc23)cc(-n2cccn2)c1
IC50: 10000 to 30000 nM
//
molecule_smiles: COC(=O)c1cc(Oc2ncnc3cc[nH]c23)cc(C(=O)OC)c1
IC50: 1 to 1000 nM
//
molecule_smiles: COc1cc(NC(C)=O)cc(Oc2ccnc3ccc(I)cc23)c1
IC50: 1 to 1000 nM
//
molecule_smiles: CCOc1cc(Oc2ccnc3ccc(Br)cc23)cc(C(=O)NC)c1
IC50: 1 to 1000 nM
//
molecule_smiles: CNC(=O)c1cc2c(Oc3cc(NC(C)=O)cc(OC)c3)ccnc2cc1OC
IC50: 1000 to 10000 nM
//
molecule_smiles: COc1cc(NC(C)=O)cc(Oc2ccnc3ccc(F)cc23)c1
IC50: 1 to 1000 nM
//
molecule_smiles: COc1cc(OC)cc(Oc2ccnc3ccccc23)c1
IC50: 1 to 1000 nM
//
molecule_smiles: COc1cc(Oc2ccnc3ccc(C(F)(F)F)cc23)cc(-n2cccn2)c1
IC50: 1 to 1000 nM
//
molecule_smiles: COc1cc(Oc2ccnc3cc(OC)c(C(N)=O)cc23)cc(-c2nc(C)no2)c1
IC50: 1 to 1000 nM
//
molecule_smiles: COC(=O)c1cc(OC)cc(Oc2ccnc3ccccc23)c1
IC50: 1 to 1000 nM
//
molecule_smiles: COC(=O)c1cc(OC)cc(Oc2ncnc3sccc23)c1
IC50: 1 to 1000 nM

====

Entries and their minimal effective concentration values follow.
- Test system: RPEMYC^H2B-GFP cells
- procedure_text: Phenotypic screening assay (mitotic arrest, polyploidy)
- Format: cell-based
- run_parameters: 1 nM to 30 μM, read-out: Mitotic Arrest (≥5%)
parameter: minimal effective concentration

molecule_smiles: COc1cc(Oc2ccnc3cc(OC)c(C(N)=O)cc23)cc(-c2nc(C)no2)c1
measurement: 0.001 to 1 µM
//
molecule_smiles: COC(=O)c1ccc2nccc(Oc3cc(OC)cc(-n4cccn4)c3)c2c1
measurement: 0.001 to 1 µM
//
molecule_smiles: COC(=O)c1cc(OC)cc(Oc2ncnc3cc[nH]c23)c1
measurement: 0.001 to 1 µM
//
molecule_smiles: COc1cc(NC(C)=O)cc(Oc2ccnc3ccsc23)c1
measurement: 0.001 to 1 µM
//
molecule_smiles: COc1cc(Oc2ncnc3ccccc23)cc(-n2cccn2)c1
measurement: 10 to 30 µM
//
molecule_smiles: COC(=O)c1cc(Oc2ncnc3cc[nH]c23)cc(C(=O)OC)c1
measurement: 0.001 to 1 µM
//
molecule_smiles: CCOc1cc(Oc2ccnc3cc(OC)c(C(N)=O)cc23)cc(-n2cccn2)c1
measurement: 0.001 to 1 µM
//
molecule_smiles: NC(=O)c1ccc2nccc(Oc3cc(Cl)cc(-n4cccn4)c3)c2c1
measurement: > 30 µM
//
molecule_smiles: COc1cc(Oc2ccnc3ccc(Cl)cc23)cc(-n2cccn2)c1
measurement: 0.001 to 1 µM

====

- Tested on: NCI-H596
- procedure_text: MECP in cancer cell line
- Assay type: cell-based
- run_parameters: Homo sapiens

molecule_smiles: COC(=O)c1cc(OC)cc(Oc2ncnc3ccsc23)c1
minimal effective concentration: 0.001 to 1 µM
//
molecule_smiles: COC(=O)c1cc(OC)cc(Oc2ccnc3ccccc23)c1
minimal effective concentration: 0.001 to 1 µM
//
molecule_smiles: COc1cc(OC)cc(Oc2ccnc3ccccc23)c1
minimal effective concentration: 0.001 to 1 µM
//
molecule_smiles: COC(=O)c1cc(OC)cc(Oc2ncnc3cc[nH]c23)c1
minimal effective concentration: 0.001 to 1 µM
//
molecule_smiles: COC(=O)c1cc(Oc2ncnc3ccsc23)cc(C(=O)OC)c1
minimal effective concentration: 0.001 to 1 µM
//
molecule_smiles: COC(=O)c1cc(Oc2ccnc3ccccc23)cc(C(=O)OC)c1
minimal effective concentration: 0.001 to 1 µM
//
molecule_smiles: COC(=O)c1cc(OC)cc(Oc2ncnc3cc(OC)c(OC)cc23)c1
minimal effective concentration: 0.001 to 1 µM
//
molecule_smiles: COC(=O)c1cc(Oc2ncnc3cc[nH]c23)cc(C(=O)OC)c1
minimal effective concentration: 0.001 to 1 µM
